# assay_overview: Food effect PK study, two single oral 1000 mg doses of abiraterone acetate, fed (high fat) vs fasted
# Format: in vivo, human
# assay_setup: human, plasma, oral, 1000 mg, Patient 19; Fasted
metric: Tmax (h)
Use h as the unit, but write only the number.

Query: So what's the measured Tmax for this one? "C[C@]12CC[C@H](O)CC1=CC[C@@H]1[C@@H]2CC[C@]2(C)C(c3cccnc3)=CC[C@@H]12"
Reply: 6

====

# assay_overview: Food effect PK study, two single oral 1000 mg doses of abiraterone acetate, fed (high fat) vs fasted
# Format: in vivo, human
# assay_setup: human, plasma, oral, 1000 mg, Patient 15; 1000 mg; Fasted; read-out: Vz F obs
metric: Vd/F (L)
Use L as the unit, but write only the number.

Query: So what's the measured Vd/F for this one? "C[C@]12CC[C@H](O)CC1=CC[C@@H]1[C@@H]2CC[C@]2(C)C(c3cccnc3)=CC[C@@H]12"
Reply: 10500
